Biological target: Free fatty acid receptor 4 (Homo sapiens) (UniProt Q5NUL3)
Sequence (whole entry): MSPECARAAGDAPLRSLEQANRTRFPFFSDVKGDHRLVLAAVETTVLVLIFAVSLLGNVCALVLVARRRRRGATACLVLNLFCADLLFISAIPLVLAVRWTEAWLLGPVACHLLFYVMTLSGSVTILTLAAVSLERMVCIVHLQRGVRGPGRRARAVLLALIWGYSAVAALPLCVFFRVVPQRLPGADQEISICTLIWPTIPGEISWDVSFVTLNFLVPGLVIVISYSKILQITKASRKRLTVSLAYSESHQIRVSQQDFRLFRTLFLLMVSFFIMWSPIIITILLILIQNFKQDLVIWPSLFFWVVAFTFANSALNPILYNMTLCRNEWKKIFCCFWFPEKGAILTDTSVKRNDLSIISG
Assay: Agonist activity at N-terminal FLAG tagged human FFAR4 transfected in African green monkey COS-7 cells assessed as accumulation of inositol phosphate at 10 uM incubated for 90 mins by TopCount NXT counter based analysis relative to control
Type: cell-based
If the reported Emax equals or exceeds 30%, assign criterion met. If not, assign criterion not met.

structure-notation: Cc1ccc(Nc2nc(N)nc(COc3ccc4c(C(F)F)cc(=O)oc4c3)n2)cc1
category-label: criterion not met

structure-notation: Cc1cc(OCc2nc(N)nc(NCCc3cc(F)ccc3F)n2)cc(N2CCCC2=O)c1
category-label: criterion met

structure-notation: Cc1cc(OCc2nc(N)nc(NCCc3ccccc3)n2)cc(N2CCCC2=O)c1
category-label: criterion met

structure-notation: Cc1cc(OCc2nc(N)nc(NCCc3ccc(Cl)cc3Cl)n2)cc(N2CCCC2=O)c1
category-label: criterion not met

structure-notation: Cc1cc(OCc2nc(N)nc(NCCc3ccc(C)cc3C)n2)cc(N2CCCC2=O)c1
category-label: criterion met

* * *

biological target: Free fatty acid receptor 4 (Homo sapiens); assay: Agonist activity at N-terminal FLAG tagged human FFAR4 transfected in African green monkey COS-7 cells assessed as accumulation of inositol phosphate at 10 uM incubated for 90 mins by TopCount NXT counter based analysis relative to control; assay type: cell-based
Examples of compounds with documented Emax follow.

structure-notation: Cc1cc(OCc2nc(N)nc(NCCc3ccccc3N3CCOCC3)n2)cc(N2CCCC2=O)c1
Emax, %: 30
--
structure-notation: Cc1cc(OCc2nc(N)nc(NCCc3ccc(C)c(Cl)c3)n2)cc(N2CCCC2=O)c1
Emax, %: 32
--
structure-notation: Cc1cc(OCc2nc(N)nc(NCCc3cccc(C(F)(F)F)c3)n2)cc(N2CCCC2=O)c1
Emax, %: 35
--
structure-notation: Cc1ccc(Nc2nc(N)nc(COc3cc(OC(F)(F)F)cc(N4CCCC4=O)c3)n2)cc1Cl
Emax, %: 38
--
structure-notation: Cc1cc(OCc2nc(N)nc(NCCc3ccccc3C)n2)cc(N2CCCC2=O)c1
Emax, %: 35

* * *

Target: Free fatty acid receptor 4 (Homo sapiens) (UniProt Q5NUL3)
Sequence (whole entry): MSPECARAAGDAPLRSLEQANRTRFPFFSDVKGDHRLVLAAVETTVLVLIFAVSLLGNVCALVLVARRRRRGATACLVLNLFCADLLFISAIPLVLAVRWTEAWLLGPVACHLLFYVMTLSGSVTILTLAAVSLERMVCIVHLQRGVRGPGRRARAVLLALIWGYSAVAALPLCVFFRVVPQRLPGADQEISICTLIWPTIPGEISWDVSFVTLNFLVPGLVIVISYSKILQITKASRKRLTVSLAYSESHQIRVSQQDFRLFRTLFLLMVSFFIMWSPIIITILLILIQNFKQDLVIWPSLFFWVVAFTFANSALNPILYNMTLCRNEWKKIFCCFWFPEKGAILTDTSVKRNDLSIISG
Assay: Agonist activity at N-terminal FLAG tagged human FFAR4 transfected in African green monkey COS-7 cells assessed as accumulation of inositol phosphate at 10 uM incubated for 90 mins by TopCount NXT counter based analysis relative to control
Type: cell-based

molecule: COc1ccc(F)cc1CCNc1nc(N)nc(COc2cc(C)cc(N3CCCC3=O)c2)n1
Emax: 30%
--
molecule: Cc1ccc(Nc2nc(N)nc(COc3ccc4c(C)cc(=O)oc4c3)n2)cc1
Emax: 39%
--
molecule: Cc1cc(OCc2nc(N)nc(NCCc3cccc(Cl)c3Cl)n2)cc(N2CCCC2=O)c1
Emax: 31%
--
molecule: COc1ccc(Cl)cc1CCNc1nc(N)nc(COc2cc(C)cc(N3CCCC3=O)c2)n1
Emax: 29%
--
molecule: COc1ccccc1CCNc1nc(N)nc(COc2cc(C)cc(N3CCCC3=O)c2)n1
Emax: 23%
--
molecule: Cc1cc(OCc2nc(N)nc(NCCc3cccc(C#N)c3)n2)cc(N2CCCC2=O)c1
Emax: 17%
--
molecule: Cc1cc(OCc2nc(N)nc(NCCc3cccc(OC(F)F)c3)n2)cc(N2CCCC2=O)c1
Emax: 28%
--
molecule: COC(CNc1nc(N)nc(COc2cc(C)cc(N3CCCC3=O)c2)n1)c1cccc(Cl)c1 (stereo unspecified)
Emax: 32%
--
molecule: CCc1cc(=O)oc2cc(OCc3nc(N)nc(Nc4ccc(C)cc4)n3)ccc12
Emax: 37%
--
molecule: Cc1cc(OCc2nc(N)nc(NCC(C)c3cccc(Cl)c3)n2)cc(N2CCCC2=O)c1 (stereo unspecified)
Emax: 33%
--
molecule: Cc1cc(OCc2nc(N)nc(NCCc3ccccc3OC(F)F)n2)cc(N2CCCC2=O)c1
Emax: 30%
